These measurements were taken from patent US5306824A.

The following compounds are listed with their measured log10(kinact/KI) values.
SUBJECT_OF_TEST: UniProtKB P08246
Sequence (P08246 30-267): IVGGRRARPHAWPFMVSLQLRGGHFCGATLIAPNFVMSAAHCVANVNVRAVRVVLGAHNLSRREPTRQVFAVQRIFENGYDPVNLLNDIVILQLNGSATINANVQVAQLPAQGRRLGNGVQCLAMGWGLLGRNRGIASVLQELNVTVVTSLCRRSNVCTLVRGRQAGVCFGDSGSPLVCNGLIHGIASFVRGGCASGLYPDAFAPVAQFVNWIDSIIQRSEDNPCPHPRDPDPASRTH
PROTOCOL: Inactivation of human leukocyte elastase by biotin-isocoumarins (incubation method)
Format: biochemical
STATED_CONDITIONS: inhibitor 1.6-210 μM; pH 7.5, 25° C.; read-out: kobs/[I] HLE
MEASURED_METRIC: log10(kinact/KI) (log10 of the value in M⁻¹ s⁻¹)

compound="O=C(CCCCCNC(=O)CCCCC1SCC2NC(=O)NC21)NCCCCCC(=O)Nc1ccc2c(Cl)c(OCCc3ccccc3)oc(=O)c2c1 (centres unmarked) [Compound 7]" reported=2.36
compound="CCCOc1oc(=O)c2cc(NC(=O)CCCCCNC(=O)CCCC[C@@H]3SC[C@@H]4NC(=O)N[C@@H]43)ccc2c1Cl [Compound 4]" reported=4.88
compound="CCCOc1oc(=O)c2cc(NC(=O)CCCC[C@@H]3SC[C@@H]4NC(=O)N[C@@H]43)ccc2c1Cl [Compound 2]" reported=4.30
compound="O=C(CCCC[C@@H]1SC[C@@H]2NC(=O)N[C@@H]21)NCCCCCC(=O)Nc1ccc2c(Cl)c(OCCc3ccccc3)oc(=O)c2c1 [Compound 3]" reported=2.83
compound="COc1oc(=O)c2cc(NC(=O)CCCCCNC(=O)CCCCCNC(=O)CCCCC3SCC4NC(=O)NC43)ccc2c1Cl (centres unmarked) [Compound 6]" reported=4.57
compound="O=C(CCCCC1SCC2NC(=O)NC21)NCCNC(=O)CNC(=O)Nc1ccc2c(Cl)c(OCCc3ccccc3)oc(=O)c2c1 (centres unmarked) [Compound 8]" reported=0.82
compound="O=C(CCCC[C@@H]1SC[C@@H]2NC(=O)N[C@@H]21)Nc1ccc2c(Cl)c(OCCc3ccccc3)oc(=O)c2c1 [Compound 1]" reported=2.87
compound="CCOc1oc(=O)c2cc(NC(=O)CCCCCNC(=O)CCCC[C@@H]3SC[C@@H]4NC(=O)N[C@@H]43)ccc2c1Cl [Compound 5]" reported=4.98
